Measured values drawn from patent US20220242950A1 for this set.

- target.system: T1, recombinant hIL1RAP Domain1+2+3 (aa21-367) (human, UniProt Q9NPH3 21-367)
- T1 construct: Numbering on Uniprot Q9NPH3
- T1 sequence (looked up): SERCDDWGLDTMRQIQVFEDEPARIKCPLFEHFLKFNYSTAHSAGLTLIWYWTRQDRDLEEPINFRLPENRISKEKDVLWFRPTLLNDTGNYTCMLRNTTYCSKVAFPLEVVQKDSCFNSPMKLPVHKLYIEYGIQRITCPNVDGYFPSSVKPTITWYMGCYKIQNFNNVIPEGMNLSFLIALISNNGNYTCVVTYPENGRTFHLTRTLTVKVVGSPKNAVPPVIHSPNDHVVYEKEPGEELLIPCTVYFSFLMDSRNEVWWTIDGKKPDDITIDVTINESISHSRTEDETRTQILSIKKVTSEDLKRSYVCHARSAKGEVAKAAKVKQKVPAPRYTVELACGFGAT
- experiment: bio-layer interferometry, human IL1RAP
Quick reference for pKd among some binders
Scale for pKd: -log10 of concentration given in mol/L; no unit attached.

Would you please look over these solved cases?
binder | measure | test.value
h48D2 VH1:VL5 (antibody, human IgG1, kappa, L234A L235A, V domains shown, Humanized; also called VL5:VH1) VH: EVQLEESGGGLVKPGGSLRLSCAASGPSLSHFDITWVRQAPGKGLEWVSTISPGVSTYYASWAKSRFTISRDNSKNTLYLQMNSLRAEDTAVYYCARGGVGSSWKAFDLWGRGTLVTVSS VL: APVLTQSPATLEASVGDRVTITCQASESISTALAWYQQKPGQPPKLLIYKASTLPSGVPSRFSGSGSGTEFTLTISDLESDDAATYYCQQGFSSGNVHNAFGGGTEVVVKR | pKd | 7.50
h48D2 VH5:VL2 (antibody, human IgG1, kappa, L234A L235A, V domains shown, Humanized; also called VL2:VH5) VH: QEQLEESGGGLVKPGGTLSLTCTVSGPSLSHFDITWIRQAPGSGLEWIGTISPGVSTYYASWAKSRVTISVDTSLNTVSLKLSSVTAADTATYFCARGGVGSSWKAFDLWGPGTLVTISS VL: QIVLTQSPATLSASVGDRVTITCQASESISTALAWYQQKPGKAPKLLIYKASTLPSGVPSRFSGSGSGTEFTLTISSLQPDDSATYYCQQGFSSGNVHNAFGQGTKLEIKR | pKd | 8.37

Shifting focus to the binder that follows.
q: Recorded pKd of h48D2 VH2:VL2 (antibody, human IgG1, kappa, L234A L235A, V domains shown, Humanized; also called VL2:VH2) VH: EVQLVESGGALVQPGGSLRLSCIVSGPSLSHFDITWFRQAPGKGLEWVATISPGVSTYYASWAKSRFTISTDTSKNTLFLQMDSLRAEDTAVYYCARGGVGSSWKAFDLWGPGTLVTVSS VL: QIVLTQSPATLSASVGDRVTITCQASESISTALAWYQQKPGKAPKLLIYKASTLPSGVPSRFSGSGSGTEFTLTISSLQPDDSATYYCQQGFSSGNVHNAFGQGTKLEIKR , please.
a: 8.13
